testTarget: T1, human galanin (mature, processed form) (human, UniProt P22466 33-62, 125I-labelled in the filtration and immunoprecipitation assays; biotinylated in the IGEN assay and in the BIAcore assay of Table 4)
T1 construct: mature; the assays used the mature peptide; also called biotinylated galanin
T1 peptide (looked up): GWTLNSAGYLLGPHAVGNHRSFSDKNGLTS
experimentalProtocol: BIAcore 3000; IgG captured by goat anti-human IgG Fc on CM5, human galanin peptide flowed; 1:1 Langmuir fit
Listed next: entries and their corresponding Kd.
metricName: Kd (nM)

INSERT INTO results (binder, metricname, unitabbreviation, readoutvalue) VALUES
  ('humanized 5B4 IgG1: light chain zu5B4 v04 with heavy chain zu5B4 v11 (antibody, V domains shown, Human IgG1 / human kappa, expressed in E5 cells; VH of humanized 5B4-v11, VL of humanized 5B4-v4) VH: EVQLVQSGAEVKKPGATVKISCKVSGFNIEDYYMHWVQQAPGKGLEWMGRIDPENGNTIYDPKFQGRVTITADTSTNTAYMDLSSLRSEDTAVYYCARGYVDWGQGTLVTVSS VL: DVVMTQSPLSLPVTLGQPASISCRSSQSIVHSDGDTYLEWYLQRPGQSPMLLIYKVSNRFSGVPDRFSGSGSGTDFTLKITRVEAEDVGVYYCFQGSHVPYTFGGGTKVEIKR', 'Kd', 'nM', 1.7),
  ('humanized 5B4 IgG1: light chain zu5B4 v04 with heavy chain zu5B4 v13 (antibody, V domains shown, Human IgG1 / human kappa, expressed in E5 cells; VH of humanized 5B4-v13, VL of humanized 5B4-v4) VH: EVQLVQSGAEVKKPGATVKISCKVSGFNIEDYYMHWVQQAPGKGLEWIGRIDPENGNTIYDPKFQGRVTITADTSTNTAYMDLSSLRSEDTAVYYCARGYVDWGQGTLVTVSS VL: DVVMTQSPLSLPVTLGQPASISCRSSQSIVHSDGDTYLEWYLQRPGQSPMLLIYKVSNRFSGVPDRFSGSGSGTDFTLKITRVEAEDVGVYYCFQGSHVPYTFGGGTKVEIKR', 'Kd', 'nM', 1.8),
  ('humanized 5B4 IgG1: light chain zu5B4 v04 with heavy chain zu5B4 v12 (antibody, V domains shown, Human IgG1 / human kappa, expressed in E5 cells; VH of humanized 5B4-v12, VL of humanized 5B4-v4) VH: EVQLVQSGAEVKKPGATVKISCKVSGFNIEDYYMHWVQQAPGKGLEWMGRIDPENGNTIYDPKFQGRATITADTSTDTAYLDLSSLRSEDTAVYYCARGYVDWGQGTLVTVSS VL: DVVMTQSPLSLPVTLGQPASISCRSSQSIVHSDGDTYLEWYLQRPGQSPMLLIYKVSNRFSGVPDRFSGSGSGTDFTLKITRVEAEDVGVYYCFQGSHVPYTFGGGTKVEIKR', 'Kd', 'nM', 1.5);

Reference source: patent US20050152896A1
